# Tested on: liposarcoma cell line 778
# Protocol Text: Microscopy (nuclei count) proliferation assay, 72 hrs, 778 cells
# Assay type: cell-based
# Experimental Setup: 72 h, single agent
The compounds listed here are annotated with their pIC50.
Lab note: report pIC50 as minus log10 of the concentration in molar units, number only.

Sure, the documented pIC50 for COc1ncc(-c2nc3c(n2C(C)C)[C@H](c2ccc(Cl)cc2)N(c2cc(Cl)cn(C)c2=O)C3=O)c(OC)n1 is 7.33

Sure, the documented pIC50 for CN(C)C(=O)c1cc2cnc(Nc3ccc(N4CCNCC4)cn3)nc2n1C1CCCC1 is 7.23
